B1: CPEB3 Ribozyme (parent)
chain: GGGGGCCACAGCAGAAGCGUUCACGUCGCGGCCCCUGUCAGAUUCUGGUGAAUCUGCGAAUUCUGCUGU

- Variants of: B1
- Test description: self-cleavage, relative activity (ratio to wild type); higher = more cleavage; co-transcriptional
Mark MET for reported self-cleavage of 0.7 or greater; mark NOT MET for anything smaller.

Record excerpt, results attached:
GGGGGCCACAGCAGAAGCGUUCACGUCGCGGCCCCUGACAGAUUCUGGUGCAUCUGCGAAUUCUGCUGU [U38A A51C]
MET
GGGGGCCACAGCAGAAGCGUUCACGUCGGGGCCUCUGUCAGAUUCUGGUGAAUCUGCGAAUUCUGCUGU [C29G C34U]
NOT MET
GGGGGCCACAGCAGAAGCGUUCCCGUCGCGGCCCCUGUUAGAUUCUGGUGAAUCUGCGAAUUCUGCUGU [A23C C39U]
MET
GGGGGCCACAGCCGAAGCGUUCACGUCGCGGCCCCUGUCAGAUUCUGGUGAACCUGCGAAUUCUGCUGU [A13C U53C]
NOT MET

Below: the item to evaluate.
Challenge: Is self-cleavage at least 0.7? Consider GGGGGCCACAGCAGAAGCGUUCACGUCUCGGCCCCUGUCAGAUUCUGGUUAAUCUGCGAAUUCUGCUGU [G28U G50U]
Response given: NOT MET
